Form field: binding score (one value per entry).
# TESTED SYSTEM: T1, CaBdf1 BD2 (GST-tagged, wild-type) (Candida albicans (strain SC5314 / ATCC …, UniProt Q5A4W8))
# T1 chain: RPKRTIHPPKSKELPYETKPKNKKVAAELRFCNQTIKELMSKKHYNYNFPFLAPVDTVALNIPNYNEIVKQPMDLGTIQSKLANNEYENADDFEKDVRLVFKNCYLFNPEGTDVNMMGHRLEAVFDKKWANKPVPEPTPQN
# EXPERIMENT DESCRIPTION: histone peptide array (Active Motif MODified), 1 uM GST-tagged bromodomain, anti-GST detection, normalized mean intensity
Square brackets hold non-standard residues; d marks the D form. Ends that are not written are not given here. Arg(Me2a) = CN(C)C(=N)NCCC[C@H](N)C(=O)O; Lys(Me3) = C[N+](C)(C)CCCC[C@H](N)C(=O)O; Arg(Me2s) = CN=C(NC)NCCC[C@H](N)C(=O)O

>  <BINDER>
SGRGKGGKGLGKGGAKRHR (not fully specified; histone peptide post-translational modifications (acetyl, methyl, phospho, citrulline) listed in columns 4-7 and embedded in the sequence text; N-terminus free or acetylated in column 8) [H4 1-19]

>  <binding score>
0.00999

$$$$
>  <BINDER>
RKSAPATGGVKKPHRYRPG (R K S A P A T G G V Kme3 K P H R Y R P G) [H3 26-45]

>  <binding score>
0.00777

$$$$
>  <BINDER>
ARTKQTARKSTGGKAPRKQ (A R T K Q T A Rme2s Kme3 S pT G G K A P R K Q)

>  <binding score>
0.0037

$$$$
>  <BINDER>
A[Arg(Me2a)]TK(Ac)QTA[Arg(Me2s)][Lys(Me3)]STGGKAPRKQ

>  <binding score>
0.0122

$$$$
>  <BINDER>
ARTK(Me)QTARKSTGGKAPRKQ

>  <binding score>
0.00185

$$$$
>  <BINDER>
AR(Me2s)TK(Ac)QTARKSTGGKAPRKQ

>  <binding score>
0.00074

$$$$
>  <BINDER>
ARTKQTARKSTGGKAPRKQ (A Rme2s T Kme1 Q T A Rme2s Kme2 S T G G K A P R K Q)

>  <binding score>
0.00333

$$$$

From: paper PMC5454392
